# Test system: SARS-CoV-2
# METHOD NOTES: Antiviral activity against SARS-CoV-2 infected in African green monkey VeroE6 cells expressing TMPRSS2
# Format: functional, organism-based
# REPORTED CONDITIONS: Severe acute respiratory syndrome coronavirus 2, Vero C1008
So basically every entry gets a class from its EC50, ranges being band A = under 400 nM, band B = from 400 nM up to 800 nM, band C = 800 nM and over

[[record]]
compound = "Cc1cncc(-n2c(=O)nc(Nc3cc4cn(C)nc4cc3Cl)n(Cc3cc(C#N)c(F)cc3C)c2=O)c1"
label = "band A"

[[record]]
compound = "Cn1cnc(Cn2c(=O)nc(NC3=CC4CCOC4C=C3Cl)n(Cc3cc(F)c(F)c(F)c3)c2=O)n1 (stereo not given)"
label = "band A"

[[record]]
compound = "Cn1cnc(Cn2c(=O)nc(Nc3cc4cn(C)nc4cc3Cl)n(Cc3cccc4ccccc34)c2=O)n1"
label = "band C"

[[record]]
compound = "Cn1cnc(Cn2c(=O)nc(Nc3cc4cn(C)nc4cc3Cl)n(Cc3cc(F)c(F)c(F)c3)c2=O)n1"
label = "band B"

[[record]]
compound = "Cn1cnc(Cn2c(=O)nc(Nc3cc4cn(CC(F)F)nc4cc3Cl)n(Cc3cc(F)c(F)cc3F)c2=O)n1"
label = "band A"

[[record]]
compound = "Cn1cnc(Cn2c(=O)nc(Nc3cc4c(F)n(C)nc4cc3Cl)n(Cc3cc(F)c(F)cc3F)c2=O)n1"
label = "band B"

[[record]]
compound = "Cn1cnc(Cn2c(=O)nc(Nc3cc4cn(C)nc4cc3Cl)n(Cc3cc(F)c(F)c(F)c3)c2=O)c1"
label = "band C"

[[record]]
compound = "Cc1cncc(-n2c(=O)nc(Nc3cc4cn(C)nc4cc3Cl)n(Cc3cc(F)c(F)cc3F)c2=O)c1"
label = "band A"

[[record]]
compound = "Cn1cc2cc(Nc3nc(=O)n(-c4cncc(C(F)(F)F)c4)c(=O)n3Cc3cc(F)c(F)c(F)c3)c(Cl)cc2n1"
label = "band C"

